# target or system: human FAAH (Homo sapiens, UniProt O00519)
# Construct: The full length FAAH was subcloned into the mammalian expression vector, pcDEF.neo, using XbaI and EcoRI restriction sites; expressed in transfected cells
# Sequence (O00519 whole entry): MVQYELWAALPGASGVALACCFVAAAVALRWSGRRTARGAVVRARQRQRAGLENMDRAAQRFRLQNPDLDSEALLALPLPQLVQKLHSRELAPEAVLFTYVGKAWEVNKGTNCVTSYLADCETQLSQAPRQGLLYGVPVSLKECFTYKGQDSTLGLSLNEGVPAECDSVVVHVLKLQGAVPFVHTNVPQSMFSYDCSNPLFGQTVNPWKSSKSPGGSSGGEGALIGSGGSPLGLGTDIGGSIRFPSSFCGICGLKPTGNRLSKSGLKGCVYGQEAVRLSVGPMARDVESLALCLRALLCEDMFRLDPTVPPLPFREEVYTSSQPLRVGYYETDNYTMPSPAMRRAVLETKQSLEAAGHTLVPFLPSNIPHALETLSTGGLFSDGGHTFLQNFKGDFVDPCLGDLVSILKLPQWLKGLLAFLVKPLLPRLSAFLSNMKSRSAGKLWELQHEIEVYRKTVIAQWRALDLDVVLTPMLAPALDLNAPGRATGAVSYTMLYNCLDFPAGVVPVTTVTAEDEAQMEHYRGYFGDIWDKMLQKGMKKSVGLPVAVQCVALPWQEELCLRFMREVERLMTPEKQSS
# assay explanation: FAAH cell lysate assay (human lysate, FAAH_CHO, AAMCA substrate)
# Assay type: biochemical
# assay conditions: lysate of CHO cells expressing human FAAH; read-out: human lysate_IC50
pIC50: −log10 of the molar value.
// label = rule met if pIC50 is not less than 8, otherwise rule not met

Example results:
[[record]]
smiles_str = "COC(=O)c1ccc(NCc2nc(-c3ccc(F)cc3)oc2Sc2ccc(Cl)cn2)cc1"
target_or_system = "human FAAH (Homo sapiens, UniProt O00519)"
assigned_category = "rule met"

[[record]]
smiles_str = "O=C(O)c1ccc(OCc2nc(-c3ccc(F)cc3)oc2Sc2ccc(Cl)cn2)cc1"
target_or_system = "human FAAH (Homo sapiens, UniProt O00519)"
assigned_category = "rule not met"

[[record]]
smiles_str = "O=C(NCC(F)(F)F)c1ccc(OCc2nc(-c3ccc(F)cc3)oc2Sc2ccc(Cl)cn2)cc1"
target_or_system = "human FAAH (Homo sapiens, UniProt O00519)"
assigned_category = "rule met"

[[record]]
smiles_str = "Fc1ccc(-c2nc(COc3ccc4[nH]ncc4c3)c(Sc3ccc(Cl)cn3)o2)cc1"
target_or_system = "human FAAH (Homo sapiens, UniProt O00519)"
assigned_category = "rule met"


### Prompt Tell me whether pIC50 is at least 8 here: "COC(=O)c1ccc(OCc2nc(-c3ccc(F)cc3)oc2Sc2ccc(Cl)cn2)cn1"
### Response rule not met

### Prompt Tell me whether pIC50 is at least 8 here: "CS(=O)(=O)c1ccc(OCc2nc(-c3ccc(F)cc3)oc2Sc2ccc(Cl)cn2)cc1"
### Response rule not met

### Prompt Tell me whether pIC50 is at least 8 here: "Fc1ccc(-c2nc(COc3ccc4[nH]ccc4c3)c(Sc3ccc(Cl)cn3)o2)cc1"
### Response rule not met

Values compiled from patent US9073879B2.
